- System: MCF-7 (ER positive breast cancer cell line)
- RUN DESCRIPTION: CellTiter-Glo antiproliferative activity, MCF-7 cell line
- Type: cell-based, human
- RUN PARAMETERS: Table 1; 72 h exposure, in the presence of 10 nM estradiol
QUANTITY: IC50 MCF-7

{"columns": ["COMPOUND STRUCTURE STRING", "REPORTED"],
 "data": [
  ["CC(C)(C)c1ccc(C(=O)NN2CCc3c(cccc3OCc3ccccc3)C2)cc1", ">41.45 µg/mL"]
]}

Your task in this section: give IC50 MCF-7 for each listed record.
1. Nc1ccc(C(=O)NN2CCc3ccc(Br)cc3C2)cc1
2. COc1cccc2c1CCN(NC(=O)c1ccc(C(C)(C)C)cc1)C2
3. CCc1ccc(C(=O)NN2CCc3c(O)cccc3C2)cc1
4. CCc1ccccc1C(=O)NN1CCc2ccc(O)cc2C1
5. CC(C)(C)c1ccc(C(=O)NN2CCc3c(O)cccc3C2)cc1

["2.80 µg/mL", ">33.84 µg/mL", "18.61 µg/mL", ">29.64 µg/mL", "7.92 µg/mL"]

Please state recorded IC50 MCF-7 (tested on MCF-7 (ER positive breast cancer cell line)) of `CCc1ccc(C(=O)NN2CCc3cc(O)ccc3C2)cc1`
>29.64 µg/mL

---

- Test system: Ishikawa (endometrial) cancer cell line
- RUN DESCRIPTION: CellTiter-Glo antiproliferative activity, Ishikawa cell line
- Assay type: cell-based, human
- RUN PARAMETERS: Table 1; 72 h exposure, in the presence of 10 nM estradiol
QUANTITY: IC50 Ishikawa (µg/mL)
One number for each entry, in µg/mL.

Please review the following examples before continuing.
{"columns": ["MOLECULE", "SYSTEM NAME", "IC50 Ishikawa, µg/mL"],
 "data": [
  ["CCc1ccc(C(=O)NN2CCc3c(O)cccc3C2)cc1 [Compound 3f]", "Ishikawa (endometrial) cancer cell line", 9.93],
  ["Nc1ccc(C(=O)NN2CCc3ccc(Br)cc3C2)cc1 [Compound 2l]", "Ishikawa (endometrial) cancer cell line", 1.09],
  ["CC(C)(C)c1ccc(C(=O)NN2CCc3c(O)cccc3C2)cc1 [Compound 3b]", "Ishikawa (endometrial) cancer cell line", 10.96]
]}

Continue with the molecule presented below.
For the molecule CCc1ccc(C(=O)NN2CCc3cc(O)ccc3C2)cc1 [Compound 2h] , what IC50 Ishikawa is on record?
22.38

---

Exercise: state measured melting point for each of the compounds provided.

Worked set:
{"columns": ["COMPOUND", "melting point"],
 "data": [
  ["CCc1ccc(C(=O)NN2CCc3c(cccc3NC(C)=O)C2)cc1", "295 to 297 °C"],
  ["COc1ccccc1C(=O)NN1CCc2ccc(O)cc2C1", "197.3 to 199.4 °C"],
  ["COc1cccc(C(=O)NN2CCc3ccc(O)cc3C2)c1", "190.5 to 192.3 °C"]
]}

Batch request: melting point for each of the following compounds.
1. CCc1ccc(C(=O)NN2CCc3cc(OC)c(OC)cc3C2C(C)C)cc1 (centres unmarked)
2. CCc1ccc(C(=O)Nc2cccc3c2CN(NC(=O)c2ccc(CC)cc2)CC3)cc1
3. CCc1ccccc1C(=O)NN1CCc2ccc(C#N)cc2C1
4. CCc1ccc(C(=O)NN2CCc3cc(C(=O)O)ccc3C2)cc1
5. CCc1ccc(C(=O)NN2CCc3cccc(N)c3C2)cc1
6. COc1ccc(S(=O)(=O)NN2CCc3c(cccc3OS(=O)(=O)c3ccc(OC)cc3)C2)cc1
7. CCc1ccc(C(=O)NN2CCc3cc(Cl)ccc3C2)cc1
8. CCc1ccc(C(=O)Nc2cccc3c2CCN(NC(=O)c2ccc(CC)cc2)C3)cc1

["162 to 163 °C", "113.2 to 116.4 °C", "162 to 167 °C", "251 to 253 °C", "223.5 to 224.8 °C", "182 to 183 °C", "205 to 206 °C", "216 to 218 °C"]

Where these numbers come from: patent US10730840B2
